Tested on: parental HEK cells
Assay: HEK parental Agonist Counterscreen Assay (non-transfected cells)
Format: cell-based
Details: Homo sapiens, HEK293; HEK Agonist Activity section of Table 4 (parental HEK counterscreen)
measurement-label: EC50

* O=C(Cn1ncc2c1-c1ccccc1OC2)Nc1ccc(CCO)cc1 | > 14.1 µM
* Cc1cccc(C(=O)NNC(=O)CCc2ccccc2)c1 | > 17.1 µM
* O=C(Cn1nc(Cc2ccncc2)c2ccccc2c1=O)N1CCCc2ccccc21 | > 14.1 µM
* O=C(NCCn1ccc2ccccc21)c1cccs1 | > 14.1 µM
* C=C1C(CC(=C)C2Cc3ccc4ccccc4c3C2)=CC(c2ccccc2)=CC1C (stereo not drawn) | > 14.1 µM
* COc1cc(C(=O)NNC(=O)COc2ccc3ccccc3c2)cc(OC)c1OC | > 15.1 µM
* N#Cc1ccc(OC(=O)COc2cccc3ccccc23)cc1 | > 13.9 µM
* CC1CCCC(NC(=O)CN2CCN(Cc3ccc(F)cc3Cl)C2=O)C1C (stereo not drawn) | > 14.1 µM
* CCOC(=O)N1CCC2=C(CC(NC(=O)Cc3cccc4ccccc34)=C2C(C)=O)C1 | > 14.2 µM
* Cc1ccc(CCNC(=O)CN2CCN(Cc3ccccc3Cl)C2=O)cc1 | > 14.1 µM
* CC(C)(C)OC(=O)NNC(=O)COCc1ccc(Cl)c(Cl)c1 | > 15.4 µM
* O=C(CC(C(=O)N1CCc2ccccc21)n1ccnc1)N1CCCCCC1 (stereo not drawn) | > 14.1 µM
* O=C(CCCOc1ccc(Cl)cc1Cl)NNC(=O)Cc1ccccc1 | > 14.8 µM
* Cc1ccccc1CS(=O)(=O)CCC(=O)NC(C)c1ccccc1 (stereo not drawn) | > 14.1 µM
* CCSc1nc2sccn2c(=O)c1C(=O)NC(C)c1ccccc1 (stereo not drawn) | > 14.1 µM
* O=C(CCc1nc2cccnc2n1Cc1cccs1)NCc1ccc2c(c1)OCO2 | > 14.1 µM
* O=c1c2c([nH]c3nc(NCc4ccccc4Cl)nn13)CCC2 | > 14.1 µM
* CC(Oc1ccc(Cl)cc1Cl)C(=O)NNC(=O)c1ccc(F)cc1 (stereo not drawn) | > 15.7 µM
* COc1ccc(C2(C)NC(=O)N(CC(=O)NCc3ccc(F)cc3)C2=O)cc1 (stereo not drawn) | > 14.1 µM
* O=C(Cn1ncc2c1-c1ccccc1OC2)Nc1ccccn1 | > 14.1 µM
* CCCCC(=O)OCC(=O)NCc1ccc(C)cc1 | > 15 µM
* COc1cc(NC(=O)NCCc2ccc3c(c2)CCCN3C)cc(OC)c1 | > 14.1 µM
* CN(CCC(=O)NCC1Cc2cccc(-c3ccccn3)c2O1)C1CCS(=O)(=O)C1 (stereo not drawn) | > 14.1 µM
* O=C(CN1CC(=O)N(Cc2ccc(O)cc2)C(c2ccccc2Cl)C1=O)NCc1ccco1 (stereo not drawn) | > 11.1 µM
* CCCCN(C)C(=O)CCC(=O)NNC1Cc2ccccc2C2=CC(C)=CC21 (stereo not drawn) | > 14.1 µM
* Cc1ccc(CNC(=O)COC(=O)c2ccc(Br)o2)cc1 | > 14.4 µM
* COc1ccc(CCC(=O)Nc2ccc(-c3cn[nH]c3)c(OC)c2)cc1 | > 14.1 µM
* CC(Oc1ccccc1)C(=O)NCCn1ccc2ccccc21 (stereo not drawn) | > 14.1 µM
* O=C(O)COc1cc(Br)c(Br)c(Br)c1O | > 15.3 µM
* O=C(Nc1ccc(-c2c[nH]cn2)cc1)C1COc2ccc(F)cc2C1 (stereo not drawn) | > 14.1 µM
* O=C1CCCCN1c1cccc(NS(=O)(=O)c2cc(Cl)ccc2Cl)c1 | > 14.1 µM
* CCC1(c2ccc(Cl)cc2)NC(=O)N(CC(=O)N2CC3(C)CC2CC(C)(C)C3)C1=O (stereo not drawn) | > 14.3 µM
* COc1ccccc1-c1nnc(NC(=O)Cc2ccc(C)cc2C)o1 | > 14.1 µM
* O=C(NCCCn1ccnc1)c1cc2nc3c(c(C(F)(F)F)n2n1)CCc1ccccc1-3 | > 14.1 µM
* Cc1cccc(NC(=S)NNC(=O)CSCc2cccc3ccccc23)c1 | > 14.1 µM
* CC(CCc1ccccc1)NC(=O)Cn1ncc2c1-c1ccccc1OC2 (stereo not drawn) | > 14.1 µM
